- assayed system: human GLP-1 receptor (Homo sapiens)
- Construct: expressed in transfected cells
- Sequence (P43220 24-463): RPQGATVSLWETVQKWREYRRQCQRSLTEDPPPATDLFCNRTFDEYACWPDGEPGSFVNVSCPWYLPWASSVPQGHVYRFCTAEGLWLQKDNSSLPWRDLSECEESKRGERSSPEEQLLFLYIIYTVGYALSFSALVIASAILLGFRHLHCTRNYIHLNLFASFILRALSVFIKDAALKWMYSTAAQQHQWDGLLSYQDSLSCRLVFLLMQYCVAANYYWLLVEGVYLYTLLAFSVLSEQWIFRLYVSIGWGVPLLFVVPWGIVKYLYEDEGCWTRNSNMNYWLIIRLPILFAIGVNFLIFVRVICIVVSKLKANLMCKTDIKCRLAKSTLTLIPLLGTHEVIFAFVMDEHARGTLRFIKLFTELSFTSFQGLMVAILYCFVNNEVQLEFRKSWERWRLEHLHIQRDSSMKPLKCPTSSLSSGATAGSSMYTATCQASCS
- test name: GLP-1 receptor potency assay (cAMP AlphaScreen, HEK293 cells stably expressing GLP-1R)
- Format: cell-based
- setup conditions: cAMP response, HEK293 cells expressing human GLP-1R; read-out: EC50 GLP-1
pEC50: −log10 of the molar value.

substance | pEC50
H-HGEGSFSSELATILDEQAARDFIAWLIQHKITD-NH2 [Compound 40] | 8.85
